# test-summary: In vivo biodistribution of [^203Pb]VMT01 in B16-F10 melanoma xenograft model
# Design: species or system athymic nude mice
# stated-conditions: both sexes, athymic nude, mouse, tumor, intravenous, 74 KBq, total radioactivity, 6 h post-injection, tail vein, read-out: Biodistribution, Tumor, Average
# Method: Radiolabeling of VMT01 was carried out according to published methods. Briefly, ^203Pb^2+ was purified on 50 mg Pb-resin (Eichrom Technologies, Lisle, IL, USA) and eluted into reaction vessel using 0.5 M sodium acetate (NaOAc) pH = 6 buffer. […] Biodistribution of [^203Pb]VMT01 was determined in a B16-F10 murine melanoma xenograft model in athymic nude mice. […] Radioactivity in tumor and organs was measured on a Cobra II automated gamma counter. […]
Where a SMILES comes first, the peptide text is derived from it. Bridges are numbered along the chain shown (N, C = ends). Triazole bridges read from a SMILES are 1,4-linked. Side-chain parts run from the residue outwards. [ ]: non-standard residue; d: D form. The star is where a group is joined. X1 = NC(=O)CN1CCN(CC(=O)O)CCN(CC(=O)*)CCN(CC(=O)O)CC1; Lys(N3) = [N-]=[N+]=NCCCC[C@H](N)C(=O)O; Nle = CCCC[C@H](N)C(=O)O; Pra = C#CC[C@H](N)C(=O)O; AEEA = NCCOCCOCC(=O)O
observed-property: tissue uptake at 6 h

[[record]]
compound = "CCCC[C@H](NC(C)=O)C(=O)N[C@H]1Cc2cn(nn2)CCCC[C@@H](C(=O)N[C@@H](CCCCNC(=O)COCCOCCNC(=O)CN2CCN(CC(=O)O)CCN(CC(N)=O)CCN(CC(=O)O)CC2)C(N)=O)NC(=O)[C@H](Cc2c[nH]c3ccccc23)NC(=O)[C@H](CCCNC(=N)N)NC(=O)[C@@H](Cc2ccccc2)NC(=O)[C@H](Cc2c[nH]cn2)NC1=O [[^203Pb]VMT01, metal not drawn] (Ac-[Nle][Pra]H[dF]RW[Lys(N3)]K([AEEA-X1])-NH2; triazole 2-7)"
observed_property = "tissue uptake at 6 h"
experimental_result = "3.8 %ID/g"


###

# test-summary: In vivo biodistribution of [^203Pb]VMT01 in B16-F10 melanoma xenograft model
# Set-up: species or system athymic nude mice
# stated-conditions: both sexes, athymic nude, mouse, kidney, intravenous, 74 KBq, total radioactivity, 1.5 h post-injection, tail vein, read-out: Biodistribution, Kidneys, Average
Where a SMILES comes first, the peptide text is derived from it. Bridges are numbered along the chain shown (N, C = ends). Triazole bridges read from a SMILES are 1,4-linked. Side-chain parts run from the residue outwards. [ ]: non-standard residue; d: D form. The star is where a group is joined. X1 = NC(=O)CN1CCN(CC(=O)O)CCN(CC(=O)*)CCN(CC(=O)O)CC1; Lys(N3) = [N-]=[N+]=NCCCC[C@H](N)C(=O)O; Nle = CCCC[C@H](N)C(=O)O; Pra = C#CC[C@H](N)C(=O)O; AEEA = NCCOCCOCC(=O)O
observed-property: tissue uptake at 1.5 h (%ID/g)

[[record]]
compound = "CCCC[C@H](NC(C)=O)C(=O)N[C@H]1Cc2cn(nn2)CCCC[C@@H](C(=O)N[C@@H](CCCCNC(=O)COCCOCCNC(=O)CN2CCN(CC(=O)O)CCN(CC(N)=O)CCN(CC(=O)O)CC2)C(N)=O)NC(=O)[C@H](Cc2c[nH]c3ccccc23)NC(=O)[C@H](CCCNC(=N)N)NC(=O)[C@@H](Cc2ccccc2)NC(=O)[C@H](Cc2c[nH]cn2)NC1=O [[^203Pb]VMT01, metal not drawn] (Ac-[Nle][Pra]H[dF]RW[Lys(N3)]K([AEEA-X1])-NH2; triazole 2-7)"
units = "%ID/g"
experimental_result = 6.1

